Data provenance is paper PMC10709440.

Overview of reported DF norm AVERAGE OR13a across a group of molecules:
Biological target: Drosophila OR13a (Drosophila melanogaster, UniProt Q9VXL0)
Construct: expressed in transfected cells
Sequence (Q9VXL0 1-418): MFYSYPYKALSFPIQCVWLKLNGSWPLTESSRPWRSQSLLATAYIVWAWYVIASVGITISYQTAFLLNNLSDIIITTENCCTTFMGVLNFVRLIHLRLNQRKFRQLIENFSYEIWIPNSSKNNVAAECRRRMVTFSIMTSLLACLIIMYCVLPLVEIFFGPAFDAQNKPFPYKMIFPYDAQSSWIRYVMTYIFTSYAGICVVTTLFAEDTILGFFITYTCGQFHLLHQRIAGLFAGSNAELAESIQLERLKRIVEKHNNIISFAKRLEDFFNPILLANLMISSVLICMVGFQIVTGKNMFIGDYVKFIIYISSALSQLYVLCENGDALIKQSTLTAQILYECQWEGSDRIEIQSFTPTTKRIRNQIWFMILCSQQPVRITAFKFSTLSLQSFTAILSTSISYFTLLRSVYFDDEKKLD
Sequence (Q9VNB5 1-486 partner): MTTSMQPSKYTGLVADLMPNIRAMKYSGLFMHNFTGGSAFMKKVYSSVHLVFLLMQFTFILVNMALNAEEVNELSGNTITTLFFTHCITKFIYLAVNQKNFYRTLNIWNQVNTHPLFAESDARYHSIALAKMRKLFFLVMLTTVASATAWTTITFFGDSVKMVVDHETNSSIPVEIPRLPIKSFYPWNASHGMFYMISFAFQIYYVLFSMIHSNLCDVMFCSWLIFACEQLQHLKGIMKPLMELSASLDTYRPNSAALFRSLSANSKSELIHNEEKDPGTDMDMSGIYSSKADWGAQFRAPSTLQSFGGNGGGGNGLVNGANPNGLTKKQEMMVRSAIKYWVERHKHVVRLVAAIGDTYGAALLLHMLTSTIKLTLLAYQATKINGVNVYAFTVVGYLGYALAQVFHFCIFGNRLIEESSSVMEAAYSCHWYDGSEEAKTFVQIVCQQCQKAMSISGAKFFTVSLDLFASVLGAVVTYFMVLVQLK
Assay: Calcium ion fluorescence (GCaMP6) assay, OR13a stable HEK293 cell line
Assay type: cell-based
Conditions: ligand concentration 10 (unit not given); 0.05 threshold, values below shown as 0

CC1=CCC23CC1C(C)(C)C2CCC3C (stereo not shown)	0
CCCCCCCCCCC	0

Lab note: C=Cc1ccccc1 gave DF norm AVERAGE OR13a of 0

Lab note: CCCCCCCCCCCCCC gave DF norm AVERAGE OR13a of 0

Lab note: Cc1ccccc1 gave DF norm AVERAGE OR13a of 0

Lab note: CC/C=C\CCOC(C)=O [z3-hexenyl acetate] gave DF norm AVERAGE OR13a of 0

Lab note: CC/C=C\CCO gave DF norm AVERAGE OR13a of 0.05798
